procedure.summary: Solubility in phosphate buffer at 37 degC
Type: physicochemical
Readings of solubility for the listed compounds
property.measured: solubility

[[record]]
mol_smiles = "CN(C)/[N+]([O-])=N/Oc1cc(Nc2cccc(C(=O)O)c2)c([N+](=O)[O-])cc1[N+](=O)[O-]"
property_measured = "solubility"
recorded_measurement = "> 2000 µM"

[[record]]
mol_smiles = "CNc1ccc(C(=O)Oc2cc(O/N=[N+](\\[O-])N(C)C)c([N+](=O)[O-])cc2[N+](=O)[O-])cc1"
property_measured = "solubility"
recorded_measurement = "< 2 µM"

[[record]]
mol_smiles = "CN(C)/[N+]([O-])=N/Oc1cc(Nc2ccc(C(=O)O)cc2)c([N+](=O)[O-])cc1[N+](=O)[O-]"
property_measured = "solubility"
recorded_measurement = "> 3000 µM"

[[record]]
mol_smiles = "CN(c1cccc(C(=O)O)c1)c1cc(O/N=[N+](\\[O-])N(C)C)c([N+](=O)[O-])cc1[N+](=O)[O-]"
property_measured = "solubility"
recorded_measurement = "3000 µM"

